measurement target: UniProt:P03372
assay info: fluorescent estrogen displacement from ERalpha – cell-based, Cos7 ERalpha-GFP, flow cytometry, dose response (AID 1223)
recorded conditions: inactive by the depositor's call
endpoint label: EC50 (nM)

O=C(O)c1cc(Cl)c2c(c1)[C@@H]1C=CC[C@@H]1[C@H](c1ccc(S(=O)(=O)N3CCOCC3)cc1)N2 1010

P: Cc1cc(C(=O)Nc2sc3c(c2C#N)CCC3)no1
Q: COc1ccc(NS(=O)(=O)c2ccc3c(c2)[C@H]2C=CC[C@H]2[C@@H](c2ccc(C(=O)O)cc2)N3)cc1
So which one has the bigger EC50 here, P or Q ? To answer, give the label that identifies your chosen option.
Q

###

measurement target: Estrogen receptor (Homo sapiens, UniProt P03372)
Sequence (P03372 whole entry): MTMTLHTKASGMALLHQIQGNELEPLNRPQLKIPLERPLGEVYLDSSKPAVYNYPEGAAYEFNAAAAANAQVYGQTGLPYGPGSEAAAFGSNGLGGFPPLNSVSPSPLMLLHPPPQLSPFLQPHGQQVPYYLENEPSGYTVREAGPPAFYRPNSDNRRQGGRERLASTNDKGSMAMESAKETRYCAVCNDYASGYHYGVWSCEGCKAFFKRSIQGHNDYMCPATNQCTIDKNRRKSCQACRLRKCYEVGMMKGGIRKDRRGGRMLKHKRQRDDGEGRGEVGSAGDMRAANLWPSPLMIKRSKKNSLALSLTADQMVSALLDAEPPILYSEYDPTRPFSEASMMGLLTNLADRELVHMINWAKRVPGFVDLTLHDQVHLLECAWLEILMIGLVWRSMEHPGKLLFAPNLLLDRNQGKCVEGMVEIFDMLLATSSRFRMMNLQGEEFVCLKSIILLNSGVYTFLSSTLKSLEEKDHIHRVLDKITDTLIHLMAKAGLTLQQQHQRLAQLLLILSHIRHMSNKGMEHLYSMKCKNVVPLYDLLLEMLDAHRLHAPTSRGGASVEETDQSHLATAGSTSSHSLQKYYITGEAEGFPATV
assay info: fluorescent estrogen displacement from ERalpha – cell-based, Cos7 ERalpha-GFP, flow cytometry, dose response (AID 1223)
endpoint label: EC50 (µM)

Sample records with EC50:
compound	EC50 (µM)
O=C(COC(=O)CCC(=O)c1cccs1)NCc1ccco1	0.00425
C[C@]12CC[C@@H]3c4ccc(O)cc4[C@@H](O)C[C@H]3[C@@H]1CC[C@@H]2O	0.0366
Brc1cc2c(cc1[C@@H]1Nc3ccccc3[C@@H]3C=CC[C@@H]31)OCO2	0.782

A: COc1ccccc1N1CCN(C(=O)c2ccc3nc(-c4ccco4)c(-c4ccco4)nc3c2)CC1
B: Cc1cc(C)c2c(c1)[C@@H]1C=CC[C@@H]1[C@H](c1ccc(S(=O)(=O)N3CCOCC3)cc1)N2
C: O=C(Nc1cc(C(F)(F)F)ccc1N1CCOCC1)C1Cc2ccccc2CN1C(=O)c1ccco1 (stereo not given)
# rank_down: sort by EC50, max first Write the labels out in the order the request specifies.
C, B, A

###

Recorded EC50 values for a group of compounds are listed next.
measurement target: Estrogen receptor (Homo sapiens)
assay info: fluorescent estrogen displacement from ERalpha – cell-based, Cos7 ERalpha-GFP, flow cytometry, dose response (AID 1223)

As a guide, the following entries are already answered.
compound	EC50
CC(=O)c1ccc2c(c1)C1C=CCC1C(c1cccc([N+](=O)[O-])c1)N2 (centres undefined)	> 10 µM
CC(=O)Oc1ccc(C2Nc3c(C(=O)O)ccc([N+](=O)[O-])c3C3C=CCC32)cc1 (centres undefined)	> 10 µM
COc1nc(-c2ccc(Cl)cc2)ccc1-c1noc(-c2ccco2)n1	0.0487 µM

--- query ---
For the compound "Cc1cc(C)cc(OCC(=O)Nc2ccc(N3CCCC3)cc2)c1" , give its measured EC50 value.
> 10 µM
